Attribution: PubChem BioAssay (NCI)

Tested on: MDA-N
Assay: NCI tumour cell line growth inhibition, 48 h
// TGI lookup, one value per entry

Sample answers from the record:
{"Compound": "CC[C@@H](/C=C\\CCC(=O)C[C@H](O)CCC=C(C)C)O[Si](C(C)C)(C(C)C)C(C)C", "TGI": "> 100 µM"}
{"Compound": "COc1ccc(C(=O)c2[nH]c(Nc3ccc(Cl)cc3)c(C(=S)Nc3ccccc3)c2N)cc1", "TGI": "> 100 µM"}
{"Compound": "C/C(=C/CC[C@]1(CO)CC[C@]2(CO)[C@H](CC[C@@H]3[C@@]4(C)CC[C@H](OC5OCC(O)C(O)C5OC5OC(CO)C(O)C(O)C5O)C(C)(C)[C@@H]4CC[C@]32C)[C@H]1O)CO (stereo not given in full)", "TGI": "> 100 µM"}

Q: Request: TGI, test system MDA-N, entry O=C(O)COc1c(Cl)cc(Cl)c2cccnc12
Result: > 100 µM

Q: Request: TGI, test system MDA-N, entry CCC(c1c[nH]c2ccc(Br)cc12)c1c[nH]c2ccc(Br)cc12
Result: 16 µM
